Measured quantity: melting point

[ask] For the compound shown here, CCc1ccc(-c2ccnc(C(=O)Nc3ccc(-c4nc5c(c(N6CCOCC6)n4)CSCC5)cc3)c2)cc1 [Compound 11h] , give the reported melting point.
[reply] 229.8 to 232.1 °C

[ask] For the compound shown here, O=C(Nc1ccc(-c2nc3c(c(N4CCOCC4)n2)CSCC3)cc1)c1cc(-c2ccc(Cl)cc2)ccn1 [Compound 11e] , give the reported melting point.
[reply] 235.3 to 236.2 °C

[ask] For the compound shown here, O=C(Nc1ccc(-c2nc3c(c(N4CCOCC4)n2)CSCC3)cc1)c1cc(-c2cccc(F)c2)ccn1 [Compound 11b] , give the reported melting point.
[reply] 236.5 to 238.4 °C

[ask] For the compound shown here, O=C(Nc1ccc(-c2nc3c(c(N4CCOCC4)n2)CS(=O)(=O)CC3)cc1)c1cc(-c2ccccc2)ccn1 [Compound 12a] , give the reported melting point.
[reply] 229 to 233.8 °C

[ask] For the compound shown here, O=C(Nc1ccc(-c2nc3c(c(N4CCOCC4)n2)CS(=O)(=O)CC3)cc1)c1cc(-c2ccccc2)ncn1 [Compound 14g] , give the reported melting point.
[reply] 294.2 to 296.6 °C

[ask] For the compound shown here, Cc1ccc(-c2ccnc(C(=O)Nc3ccc(-c4nc5c(c(N6CCOCC6)n4)CSCC5)cc3)c2)cc1 [Compound 11g] , give the reported melting point.
[reply] 275 to 276.8 °C

[ask] For the compound shown here, O=C(Nc1ccc(-c2nc3c(c(N4CCOCC4)n2)CS(=O)(=O)CC3)cc1)c1cc(-c2ccc(C(F)(F)F)cc2)ccn1 [Compound 12d] , give the reported melting point.
[reply] > 300 °C

----------
tested on: MCF-7 (human breast cancer) cell line; test: MTT cell proliferation (cytotoxicity) assay, MCF-7; format: cell-based; conditions: Homo sapiens, MCF7, 72 h, average of two separate determinations, Table 1
Measured quantity: log10(IC50) (log10 of the value in µM)
log10 IC50, µM

[ask] For the compound shown here, CS(=O)(=O)N1CCN(Cc2cc3nc(-c4cccc5[nH]ncc45)nc(N4CCOCC4)c3s2)CC1 [GDC-0941, reference compound] , give the reported log10(IC50).
[reply] -1.15

[ask] For the compound shown here, COc1ccc(-c2ccnc(C(=O)Nc3ccc(-c4nc5c(c(N6CCOCC6)n4)CSCC5)cc3)c2)cc1 [Compound 11i] , give the reported log10(IC50).
[reply] 1.51

[ask] For the compound shown here, Cc1ccc(-c2ccnc(C(=O)Nc3ccc(-c4nc5c(c(N6CCOCC6)n4)CS(=O)(=O)CC5)cc3)c2)cc1 [Compound 12g] , give the reported log10(IC50).
[reply] 1.46

[ask] For the compound shown here, O=C(Nc1ccc(-c2nc3c(c(N4CCOCC4)n2)CSCC3)cc1)c1cc(-c2ccc(Cl)cc2)ccn1 [Compound 11e] , give the reported log10(IC50).
[reply] 1.32

[ask] For the compound shown here, O=C(Nc1ccc(-c2nc3c(c(N4CCOCC4)n2)CSCC3)cc1)c1cc(-c2ccc(C(F)(F)F)cc2)ccn1 [Compound 11d] , give the reported log10(IC50).
[reply] 1.70

[ask] For the compound shown here, CCc1ccc(-c2ccnc(C(=O)Nc3ccc(-c4nc5c(c(N6CCOCC6)n4)CS(=O)(=O)CC5)cc3)c2)cc1 [Compound 12h] , give the reported log10(IC50).
[reply] 0.97

[ask] For the compound shown here, O=C(Nc1ccc(-c2nc3c(c(N4CCOCC4)n2)CSCC3)cc1)c1cc(-c2cccc(F)c2)ccn1 [Compound 11b] , give the reported log10(IC50).
[reply] 1.71
